- study-target: human Na+/taurocholate cotransporting polypeptide (NTCP) (Homo sapiens, UniProt Q14973)
- Construct: containing the human NTCP open reading frame with a C-terminal 6-His tag; expressed in transfected cells
- Sequence (Q14973 whole entry): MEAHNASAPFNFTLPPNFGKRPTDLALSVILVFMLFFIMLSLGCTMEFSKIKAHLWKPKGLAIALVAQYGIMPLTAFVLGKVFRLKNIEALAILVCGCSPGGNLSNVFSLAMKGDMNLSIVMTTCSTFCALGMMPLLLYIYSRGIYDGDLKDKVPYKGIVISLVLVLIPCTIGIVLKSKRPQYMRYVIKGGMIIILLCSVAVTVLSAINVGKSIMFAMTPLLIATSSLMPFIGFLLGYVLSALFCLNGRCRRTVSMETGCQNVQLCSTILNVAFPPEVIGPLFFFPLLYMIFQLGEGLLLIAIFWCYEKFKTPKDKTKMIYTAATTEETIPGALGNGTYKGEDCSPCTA
- measurement-protocol: Inhibition kinetics of NTCP-mediated taurocholate transport in NTCP-expressing HEK293 cells
- Assay type: cell-based
- Method: Flp-In™-293 (HEK293) cells were purchased from Thermo Fisher Scientific (Waltham, MA, USA) and grown at 37 °C in a humidified 5% CO2 atmosphere in Dulbecco’s Modified Eagle’s Medium (DMEM) obtained from the American Type Culture Collection (ATCC, Manassas, VA, USA: 30-2002). […] The pcDNA5/FRT plasmid containing the human NTCP open reading frame with a C-terminal 6-His tag was used to generate a stable NTCP-expressing cell line using hygromycin selection. […]
reported-metric: Ki (µM)

O=C(O)C(F)(F)C(F)(F)C(F)(F)C(F)(F)C(F)(F)C(F)(F)C(F)(F)F	17
